testedTarget: T1, extracellular domain (ECD) of human αKlotho, amino acids E34-S981 with C-terminal 6-His tag (R&D Systems … (human, UniProt Q9UEF7 34-981))
T1 construct: range 34-981; also called αKlotho (aa34-981); target antigen
T1 sequence: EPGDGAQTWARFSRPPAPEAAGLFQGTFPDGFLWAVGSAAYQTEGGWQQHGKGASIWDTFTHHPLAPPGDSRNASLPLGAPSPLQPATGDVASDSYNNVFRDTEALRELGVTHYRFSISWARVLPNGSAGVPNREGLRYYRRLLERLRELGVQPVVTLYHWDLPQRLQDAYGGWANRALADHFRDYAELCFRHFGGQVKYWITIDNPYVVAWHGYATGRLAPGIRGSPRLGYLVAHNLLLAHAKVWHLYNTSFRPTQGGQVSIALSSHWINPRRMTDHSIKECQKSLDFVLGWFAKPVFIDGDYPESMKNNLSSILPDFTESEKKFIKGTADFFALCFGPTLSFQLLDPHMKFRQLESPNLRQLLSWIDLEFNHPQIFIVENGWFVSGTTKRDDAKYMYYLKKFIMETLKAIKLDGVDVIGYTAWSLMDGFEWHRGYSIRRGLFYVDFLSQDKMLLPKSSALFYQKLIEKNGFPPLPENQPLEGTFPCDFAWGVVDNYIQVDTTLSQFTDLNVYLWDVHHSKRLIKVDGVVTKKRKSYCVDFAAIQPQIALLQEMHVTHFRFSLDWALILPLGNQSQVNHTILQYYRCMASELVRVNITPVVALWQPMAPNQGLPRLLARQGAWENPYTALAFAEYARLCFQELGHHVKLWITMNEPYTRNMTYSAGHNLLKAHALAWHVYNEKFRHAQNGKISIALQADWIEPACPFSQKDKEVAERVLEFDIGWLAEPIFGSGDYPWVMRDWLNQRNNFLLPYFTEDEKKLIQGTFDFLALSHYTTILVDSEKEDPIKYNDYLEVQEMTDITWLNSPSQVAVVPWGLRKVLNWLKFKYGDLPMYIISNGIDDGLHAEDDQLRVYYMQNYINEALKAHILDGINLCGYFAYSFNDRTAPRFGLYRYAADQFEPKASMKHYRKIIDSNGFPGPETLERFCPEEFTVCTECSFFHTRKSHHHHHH
runDescription: SPR, Fab captured by anti-H+L IgG, αKlotho injected at 50 to 6.25 ug/ml, Langmuir fit [continued]
Method: Affinity estimates for each of the antibodies were determined by surface plasmon resonance (SPR). Fabs were immobilized using an anti-H+L antibody and serial dilutions of αKlotho were injected.
Overview of recorded koff for various binders
valueKind: koff (s⁻¹)

{"binder": "anti-αKlotho Fab clone 4830 (Fab, V domains shown, Fab (also as Fab-phage); FLAG tag on light chain; also called sb199) VH: EVQLVESGGGLVQPGGSLRLSCAASGFNIYYSSIHWVRQAPGKGLEWVASIYPYYSYTYYADSVKGRFTISADTSKNTAYLQMNSLRAEDTAVYYCARSVASALDYWGQGTLVTVSS VL: DIQMTQSPSSLSASVGDRVTITCRASQSVSSAVAWYQQKPGKAPKLLIYSASSLYSGVPSRFSGSRSGTDFTLTISSLQPEDFATYYCQQYSWYWYSPITFGQGTKVEIKR", "quantityUnit": "s⁻¹", "testResult": 0.00113}
{"binder": "anti-αKlotho Fab clone 4832 (Fab, V domains shown, Fab (also as Fab-phage); FLAG tag on light chain; also called sb201) VH: EVQLVESGGGLVQPGGSLRLSCAASGFNFSSSSIHWVRQAPGKGLEWVAYISSSYGYTSYADSVKGRFTISADTSKNTAYLQMNSLRAEDTAVYYCARASGWFSHFYPAAVSGMDYWGQGTLVTVSS VL: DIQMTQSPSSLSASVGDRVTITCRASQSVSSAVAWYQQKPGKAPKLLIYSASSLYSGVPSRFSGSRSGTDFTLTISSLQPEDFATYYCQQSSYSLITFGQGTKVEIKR", "quantityUnit": "s⁻¹", "testResult": "4.61e-05"}
{"binder": "anti-αKlotho Fab clone 4821 (Fab, V domains shown, Fab (also as Fab-phage); FLAG tag on light chain; also called sb190) VH: EVQLVESGGGLVQPGGSLRLSCAASGFNLYYSYMHWVRQAPGKGLEWVASISPYSGSTYYADSVKGRFTISADTSKNTAYLQMNSLRAEDTAVYYCARSGFSSWWWVVSYAFDYWGQGTLVTVSS VL: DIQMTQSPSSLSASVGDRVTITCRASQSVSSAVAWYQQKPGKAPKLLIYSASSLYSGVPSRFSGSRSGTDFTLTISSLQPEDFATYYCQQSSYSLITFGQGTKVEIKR", "quantityUnit": "s⁻¹", "testResult": 0.00277}
